Reported Kb values are given for each entry in this list.
System under test: Guinea Pig Ileum (Cavia porcellus)
Construct: from tissue; host or cells: guinea pig ileum
Sequence (H0W1Z3 1-590): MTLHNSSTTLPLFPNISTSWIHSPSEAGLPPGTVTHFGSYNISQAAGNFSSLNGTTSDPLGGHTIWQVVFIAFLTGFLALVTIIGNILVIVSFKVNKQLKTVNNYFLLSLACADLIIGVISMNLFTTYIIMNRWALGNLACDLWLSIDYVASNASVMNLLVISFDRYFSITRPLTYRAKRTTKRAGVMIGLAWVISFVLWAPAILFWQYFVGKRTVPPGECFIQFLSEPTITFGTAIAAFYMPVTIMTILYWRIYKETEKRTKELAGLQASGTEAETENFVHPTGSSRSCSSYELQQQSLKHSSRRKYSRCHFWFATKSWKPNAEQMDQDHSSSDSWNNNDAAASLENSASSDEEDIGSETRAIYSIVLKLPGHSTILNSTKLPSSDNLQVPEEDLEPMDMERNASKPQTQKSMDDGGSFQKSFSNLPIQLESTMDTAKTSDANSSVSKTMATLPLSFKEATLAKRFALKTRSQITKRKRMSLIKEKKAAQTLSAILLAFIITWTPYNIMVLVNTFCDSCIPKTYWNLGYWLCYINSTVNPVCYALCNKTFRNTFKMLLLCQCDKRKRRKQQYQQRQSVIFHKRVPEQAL
Procedure details: pA2 Determination on Guinea Pig Ileum (antagonism to Acetylcholine)
Condition info: in vitro, read-out: pA2 on Iillium (converted)
Where a name gives a salt, the structure may show the parent alone.
Numeric only. Scale: µM

[in] Kb lookup needed for CN(C)CC(O)C(c1ccccc1)c1ccccc1 (centres unmarked) , thanks.
[out] 10

[in] Using the record for CNCC(O)C(c1ccccc1)c1ccccc1 (centres unmarked) [CH3 H H H H HCl, 3-Methylamino-1,1-diphenyl-propan-2-ol] , report its Kb.
[out] 10

[in] Can you share its Kb? I mean this compound: CN(C)CCCN1c2ccccc2CCc2ccccc21 [Imipramine HCl, reference compound]
[out] 0.001

[in] For the compound shown here, CNCC(O)C(c1ccccc1)c1ccc(F)cc1 (centres unmarked) , give the reported Kb.
[out] 100

[in] I'd like to know its Kb. The compound in question is CN(C)CC(O)C(c1ccccc1)c1ccc(Cl)cc1 (centres unmarked)
[out] 10

* * *

Recorded measurements of Δ^24, one per entry
Test system: reserpine hypothermia
Procedure details: Prevention of Reserpine Hypothermia
Format: in vivo, mice (Carworth Europe male)
Condition info: mice, oral, 100 mg/kg; cumulative temperature difference from controls at 24 hours
Counter-ions that a name gives are not always drawn.
Give your result in °C as a bare value.

Examples with answers:
OC(CN1CCOCC1)C(c1ccccc1)c1ccccc1 (stereo not shown); 10
CNCC(O)C(c1ccccc1)c1ccc(C)cc1 (stereo not shown) [CH3 H H H CH3 HCl]; 6
OC(CN1CCCCC1)C(c1ccccc1)c1ccccc1 (stereo not shown); 10

Lab note: next molecule to report on.
[in] # query: Δ^24 of entry CN(Cc1ccccc1)CC(C)(O)C(c1ccccc1)c1ccccc1 (stereo not shown)
[out] 8

* * *

System: reserpine hypothermia
Procedure details: Prevention of Reserpine Hypothermia
Assay type: in vivo, mice (Carworth Europe male)
Condition info: mice, oral, 100 mg/kg; cumulative temperature difference from controls at 6 hours
Where a name gives a salt, the structure may show the parent alone.
Documented Δ^6 across a set of compounds

OC(CN1CCCCC1)C(c1ccccc1)c1ccccc1 (stereo not shown) [H H piperidine, 3-N-Piperidino-1 1-diphenyl-propan-2-ol]; 9 °C
OC(CN1CCOCC1)C(c1ccccc1)c1ccccc1 (stereo not shown) [H H morpholino]; 10 °C
CNCC(O)C(c1ccccc1)c1ccc(C)cc1 (stereo not shown) [CH3 H H H CH3 HCl]; 6 °C

Turning now to a further record.
[in] Query (compound): CN(Cc1ccccc1)CC(C)(O)C(c1ccccc1)c1ccccc1 (stereo not shown) [CH3 H N(CH3)CH2C6H5] ; field requested: Δ^6
[out] 6 °C
